assayed.target: α4β1 integrin (Jurkat T-cell adhesion to IL-1 stimulated endothelial cell monolayers) (Homo sapiens, UniProt P05556+P13612)
Construct: a T-cell line, Jurkat, known to express the α4β1 integrin
Sequence (P13612 34-1032): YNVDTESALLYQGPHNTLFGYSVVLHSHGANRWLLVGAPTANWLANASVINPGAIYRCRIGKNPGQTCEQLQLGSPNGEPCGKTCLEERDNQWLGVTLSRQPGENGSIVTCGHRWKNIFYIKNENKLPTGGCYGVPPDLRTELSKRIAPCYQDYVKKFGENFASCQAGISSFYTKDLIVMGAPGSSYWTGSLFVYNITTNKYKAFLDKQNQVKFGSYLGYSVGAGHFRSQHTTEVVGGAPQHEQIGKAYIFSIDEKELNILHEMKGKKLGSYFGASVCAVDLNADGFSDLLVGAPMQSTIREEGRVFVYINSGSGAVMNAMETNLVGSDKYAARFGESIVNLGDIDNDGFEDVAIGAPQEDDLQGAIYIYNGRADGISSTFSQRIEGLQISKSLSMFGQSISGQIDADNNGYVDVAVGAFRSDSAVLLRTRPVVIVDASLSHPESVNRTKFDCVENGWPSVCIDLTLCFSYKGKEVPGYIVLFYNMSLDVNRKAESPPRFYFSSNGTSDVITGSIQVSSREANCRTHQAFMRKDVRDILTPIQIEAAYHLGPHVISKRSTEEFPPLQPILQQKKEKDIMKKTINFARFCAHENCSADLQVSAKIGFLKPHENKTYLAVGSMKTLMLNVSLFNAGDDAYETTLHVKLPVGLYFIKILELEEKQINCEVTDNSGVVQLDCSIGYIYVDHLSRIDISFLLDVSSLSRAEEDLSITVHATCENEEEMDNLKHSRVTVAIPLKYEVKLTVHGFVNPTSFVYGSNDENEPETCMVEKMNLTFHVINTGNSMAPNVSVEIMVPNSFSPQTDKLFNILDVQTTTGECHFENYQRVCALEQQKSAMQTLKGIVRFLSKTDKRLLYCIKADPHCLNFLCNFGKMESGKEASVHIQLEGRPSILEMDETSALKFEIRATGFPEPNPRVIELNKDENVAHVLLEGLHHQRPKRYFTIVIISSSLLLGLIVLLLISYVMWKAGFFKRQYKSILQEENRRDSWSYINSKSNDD
Sequence (P05556 21-798): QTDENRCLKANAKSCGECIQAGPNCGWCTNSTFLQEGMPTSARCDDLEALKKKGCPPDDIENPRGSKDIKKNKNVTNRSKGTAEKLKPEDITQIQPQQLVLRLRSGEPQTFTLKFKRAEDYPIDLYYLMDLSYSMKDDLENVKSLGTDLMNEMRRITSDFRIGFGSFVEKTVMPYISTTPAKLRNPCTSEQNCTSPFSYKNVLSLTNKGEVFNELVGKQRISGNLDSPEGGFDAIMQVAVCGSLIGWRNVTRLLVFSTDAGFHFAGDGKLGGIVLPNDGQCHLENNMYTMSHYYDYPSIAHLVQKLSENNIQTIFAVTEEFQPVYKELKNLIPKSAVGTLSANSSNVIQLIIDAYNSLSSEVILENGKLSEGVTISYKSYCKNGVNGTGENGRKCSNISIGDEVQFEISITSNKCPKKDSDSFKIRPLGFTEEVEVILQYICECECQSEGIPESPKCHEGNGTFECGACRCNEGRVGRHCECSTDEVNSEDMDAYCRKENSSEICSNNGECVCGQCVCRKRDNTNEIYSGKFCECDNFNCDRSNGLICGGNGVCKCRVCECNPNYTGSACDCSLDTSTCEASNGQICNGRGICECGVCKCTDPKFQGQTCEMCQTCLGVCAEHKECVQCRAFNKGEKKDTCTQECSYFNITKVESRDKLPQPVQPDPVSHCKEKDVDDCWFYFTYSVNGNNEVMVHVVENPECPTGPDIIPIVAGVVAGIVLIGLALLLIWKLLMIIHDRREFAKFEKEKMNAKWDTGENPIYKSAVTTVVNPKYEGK
experimental.details: Jurkat-endothelial cell adhesion assay (Jurkat EC)
condition.parameters: Jurkat cells on IL-1 stimulated human umbilical vein endothelial cells; read-out: JK/EC (Jurkat EC Assay IC50 value range)
assay.metric: IC50

INSERT INTO assay_data (compound, observed_value) VALUES
  ('CC(C)(C)OC(=O)N1[C@@H](C(=O)N[C@@H](Cc2ccc(NC(=O)c3c(Cl)cccc3Cl)cc2)C(=O)O)CSC1(C)C (relative stereo)', '≤ 0.25 µM'),
  ('O=C(Nc1ccc(C[C@H](NC(=O)[C@H]2CCCN2C(=O)c2cccnc2)C(=O)O)cc1)c1c(Cl)cccc1Cl', '≤ 0.25 µM'),
  ('CC(=O)N1[C@@H](C(=O)N[C@@H](Cc2ccc(NC(=O)c3c(Cl)cccc3Cl)cc2)C(=O)O)CSC1(C)C', '≤ 0.25 µM'),
  ('CC(C)(C)OC(=O)N1CSC[C@H]1C(=O)N[C@@H](Cc1ccc(OCc2c(Cl)cccc2Cl)cc1)C(=O)O (relative stereo)', '≥ 1 µM'),
  ('COC(=O)[C@H](Cc1ccc(NC(=O)c2c(Cl)cccc2Cl)cc1)NC(=O)[C@H]1CSCN1S(=O)(=O)c1cccc2c(N(C)C)cccc12', '≥ 1 µM'),
  ('O=C(O)CC1(CC(=O)N2CCC(C(=O)N[C@@H](Cc3ccc(NC(=O)c4c(Cl)cccc4Cl)cc3)C(=O)O)CC2)CCCC1', '≥ 1 µM');
